target: T1, recombinant purified FRα (ECL assay calibrator) (human, UniProt P15328 25-234); assay: ECL sandwich, FRα calibrator; capture 28H12.G9; binder = detection Ab
T1 construct: Calibrator of the ECL sandwich assays; also called FRα calibrator; FRα standard
T1 sequence (P15328 25-234 limits assumed): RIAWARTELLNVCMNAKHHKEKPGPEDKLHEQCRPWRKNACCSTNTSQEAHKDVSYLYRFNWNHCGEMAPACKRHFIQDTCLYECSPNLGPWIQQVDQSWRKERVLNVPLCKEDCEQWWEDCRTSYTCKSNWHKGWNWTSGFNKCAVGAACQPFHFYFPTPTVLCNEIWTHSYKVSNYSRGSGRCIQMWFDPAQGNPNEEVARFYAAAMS
READOUT: Specific signal at 500 pg/mL

Specific signal at 500 pg/mL for Monoclonal antibody 1A8.G11.E7 (antibody, mouse IgG1, V domains shown, Murine IgG1 kappa from hybridoma; also called ATCC PTA-123100) VH: ESGPGLVAPSQSLSITCTVSGFSLTSYGVSWVRQPPGKGLEWLGVIWGDGSTNYHSTLISRLSISKDNSKSQVFLKLNSLQTDDTATYYCAKPHPAATGAMDYWGQGTSVTVSS VL: TQTTSSLSASLGDRVTISCRASQDISNHLNWYQQKPDGTVKLLIYYTSRLHSGVPSRFSGSGSGTDYSLTISNLEQEDIATYFCQQGNTLWTFGGGTKLEIK is 83

Specific signal at 500 pg/mL for Monoclonal antibody 6A2.G7 (antibody, mouse IgG1, V domains shown, Murine IgG1 kappa from hybridoma; also called ATCC PTA-123093) VH: GADLVKPGASVKMSCKASGYTFSRYNMHWVKQTPGQGLEWIGTIYPGNGDTSYNEKFKGKATLTADKSSSIVYMQVSSLTSEASAVYYCARDYGSRYALDYWGQGTSVTVSS VL: SSLSASLGDRVTISCRASQDISNYLNWYQQKPDGTVKLLIYYTSRLHSGVPSRFSGSGSGTDYSLTISNLEQEDIATYFCQQGNTLPYTFGGGTKLEIK is 432
